tested-on: CDK2-CYCLINA (Homo sapiens, UniProt P24941)
Construct: purchased Millipore
test-description: Inhibition assay, microfluidic LabChip (Nanosyn)
Type: biochemical
study-conditions: Table 3a
measured-quantity: IC50 (nM)

What IC50 value was documented for this compound, CN1CC2(C1)CN(c1ccc(Nc3ncc4cc(C(=O)N(C)C)n(C56CC(C5)C6)c4n3)cc1F)C2 ?
631

What IC50 value was documented for this compound, CC1CCN(c2ccc(Nc3ncc4cc(C(=O)N(C)C)n(C56CC(C5)C6)c4n3)cc2)CC1 ?
690

What IC50 value was documented for this compound, CN1CCC(c2ccc(Nc3ncc4cc(C(=O)N(C)C)n(C56CC(C5)C6)c4n3)cc2)CC1 ?
660

What IC50 value was documented for this compound, Cc1cc(Nc2ncc3cc(C(=O)N(C)C)n(C45CC(C4)C5)c3n2)ccc1OCCN(C)C ?
713

###

tested-on: CDK7 CyclinH (Homo sapiens)
Sequence (P50613 whole entry): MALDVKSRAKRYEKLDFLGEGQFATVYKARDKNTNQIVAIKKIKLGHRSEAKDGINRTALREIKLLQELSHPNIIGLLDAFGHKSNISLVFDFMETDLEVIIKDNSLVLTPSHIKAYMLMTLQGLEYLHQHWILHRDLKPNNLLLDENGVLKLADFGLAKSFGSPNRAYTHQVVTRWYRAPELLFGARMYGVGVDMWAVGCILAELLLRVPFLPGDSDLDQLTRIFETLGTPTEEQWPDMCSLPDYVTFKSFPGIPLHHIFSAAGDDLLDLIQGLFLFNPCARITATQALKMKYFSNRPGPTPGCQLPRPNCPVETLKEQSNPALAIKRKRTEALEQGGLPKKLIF
Sequence (P51946 whole entry partner): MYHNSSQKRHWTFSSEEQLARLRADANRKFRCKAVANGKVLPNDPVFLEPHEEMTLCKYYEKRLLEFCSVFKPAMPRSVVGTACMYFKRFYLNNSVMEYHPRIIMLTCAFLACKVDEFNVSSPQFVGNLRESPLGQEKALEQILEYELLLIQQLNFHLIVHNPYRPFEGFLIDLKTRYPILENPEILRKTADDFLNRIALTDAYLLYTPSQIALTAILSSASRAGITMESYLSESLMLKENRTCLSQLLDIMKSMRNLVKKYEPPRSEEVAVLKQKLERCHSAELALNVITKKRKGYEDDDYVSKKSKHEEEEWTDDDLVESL
Sequence (P51948 whole entry partner): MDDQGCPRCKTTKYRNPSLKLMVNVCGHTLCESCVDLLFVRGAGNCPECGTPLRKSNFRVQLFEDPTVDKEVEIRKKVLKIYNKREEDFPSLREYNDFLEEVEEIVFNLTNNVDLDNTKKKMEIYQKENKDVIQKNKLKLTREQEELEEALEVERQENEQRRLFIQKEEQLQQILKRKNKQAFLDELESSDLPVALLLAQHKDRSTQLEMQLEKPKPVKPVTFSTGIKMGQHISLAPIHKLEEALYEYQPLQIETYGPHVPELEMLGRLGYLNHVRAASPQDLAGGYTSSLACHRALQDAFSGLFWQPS
test-description: Inhibition assay, microfluidic LabChip (Nanosyn)
Format: biochemical
study-conditions: Table 3a
measured-quantity: IC50

These recorded examples may help you get a feel for the data.
What IC50 value was documented for this compound, CN(C)C(=O)c1cc2cnc(Nc3ccc(C4=CCNCC4)cn3)nc2n1C12CC(C1)C2 ?
> 100 µM

What IC50 value was documented for this compound, CN1CC2(C1)CN(c1ccc(Nc3ncc4cc(C(=O)N(C)C)n(C56CC(C5)C6)c4n3)cc1)C2 ?
> 10 µM

***
What IC50 value was documented for this compound, CN(C)C(=O)c1cc2cnc(Nc3ccc(S(C)(=O)=O)cc3)nc2n1C12CC(C1)C2 ?
> 10 µM

###

tested-on: CDK4-CYCLIND1 (Homo sapiens, UniProt P11802)
Construct: purchased Invitrogen
Sequence (P11802 whole entry): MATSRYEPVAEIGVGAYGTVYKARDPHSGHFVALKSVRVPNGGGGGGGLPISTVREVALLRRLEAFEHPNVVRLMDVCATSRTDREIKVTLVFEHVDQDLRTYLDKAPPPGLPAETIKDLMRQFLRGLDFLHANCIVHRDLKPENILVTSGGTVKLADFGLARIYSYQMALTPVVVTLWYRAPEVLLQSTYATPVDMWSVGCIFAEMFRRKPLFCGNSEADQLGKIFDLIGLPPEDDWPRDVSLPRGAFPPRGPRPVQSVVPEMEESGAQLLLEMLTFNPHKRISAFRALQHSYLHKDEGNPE
Sequence (P24385 whole entry partner): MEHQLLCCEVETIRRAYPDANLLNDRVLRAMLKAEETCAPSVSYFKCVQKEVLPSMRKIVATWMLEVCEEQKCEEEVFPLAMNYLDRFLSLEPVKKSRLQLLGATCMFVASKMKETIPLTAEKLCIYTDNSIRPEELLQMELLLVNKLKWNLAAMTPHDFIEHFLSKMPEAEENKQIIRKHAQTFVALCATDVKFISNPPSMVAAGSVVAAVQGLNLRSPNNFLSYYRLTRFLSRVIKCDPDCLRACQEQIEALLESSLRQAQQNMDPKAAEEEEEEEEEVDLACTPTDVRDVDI
test-description: Inhibition assay, microfluidic LabChip (Nanosyn)
Type: biochemical
study-conditions: Table 2; ATP 200 μM; read-out: CDK4 IC50
measured-quantity: IC50 (nM)

These recorded examples may help you get a feel for the data.
What IC50 value was documented for this compound, CN(C)C(=O)c1cc2cnc(Nc3ccc(OCCN4CCCC4)cn3)nc2n1C1CCCC1 [Compound A5] ?
19.3

What IC50 value was documented for this compound, CN(C)CCOc1ccc(Nc2ncc3cc(C(=O)N(C)C)n(C45CC(C4)C5)c3n2)nc1 [Compound A15] ?
31.5

What IC50 value was documented for this compound, CN(C)C(=O)c1c(F)c2cnc(Nc3ccc(N4CCOCC4)c(F)c3)nc2n1C1CCCC1 [Compound A20] ?
33

a. COc1cc(Nc2ncc3c(F)c(C(=O)N(C)C)n(C4CCCC4)c3n2)ccc1N1CCN(C(C)C)CC1 [Compound A35]
b. CN1CCN(c2cnc(Nc3ncc4c(F)c(C(=O)N(C)C)n(C5CCCC5)c4n3)cc2C(F)(F)F)CC1 [Compound A18]
Response body: label of entry with the larger IC50; valid values a , b . # reply format: chosen label
b

###

tested-on: CDK4-CYCLIND1 (Homo sapiens, UniProt P11802)
Construct: purchased Invitrogen
test-description: Inhibition assay, microfluidic LabChip (Nanosyn)
Type: biochemical
study-conditions: Table 2; ATP 200 μM; read-out: CDK4 IC50
measured-quantity: IC50 (µM)

These recorded examples may help you get a feel for the data.
What IC50 value was documented for this molecule, CN(C)C(=O)c1cc2cnc(Nc3ccc(N4CC5(CNC5)C4)c(F)c3)nc2n1C12CC(C1)C2 [Compound A47] ?
0.00522

What IC50 value was documented for this molecule, CN1CCN(c2ccc(Nc3ncc4c(F)c(C(=O)N(C)C)n(C5CCCC5)c4n3)cn2)CC1 [Compound A28] ?
0.0266

What IC50 value was documented for this molecule, CC(C)N1CCN(c2ccc(Nc3ncc4c(F)c(C(=O)N(C)C)n(C5CCCC5)c4n3)cc2)CC1 [Compound A36] ?
0.00817

P. CN1CCN(c2ccc(Nc3ncc4cc(C(=O)N(C)C)n(C56CC(C5)C6)c4n3)cc2F)CC1 [Compound A30]
Q. CN(C)C(=O)c1c(F)c2cnc(Nc3ccc(C4=CCNCC4)cn3)nc2n1C1CCCC1 [Compound A22]
R. CCN1CCN(Cc2ccc(Nc3ncc4cc(C(=O)N(C)C)n(C56CC(C5)C6)c4n3)nc2)CC1 [Compound A41]
Reorder the items by IC50, least to greatest. List the labels according to the requested ordering.
P, R, Q
(P: 0.0107 µM, R: 0.0214 µM, Q: 0.0417 µM)

###

tested-on: CDK9-CYCLINT1 (Homo sapiens)
Construct: purchased Carna
Sequence (P50750 whole entry): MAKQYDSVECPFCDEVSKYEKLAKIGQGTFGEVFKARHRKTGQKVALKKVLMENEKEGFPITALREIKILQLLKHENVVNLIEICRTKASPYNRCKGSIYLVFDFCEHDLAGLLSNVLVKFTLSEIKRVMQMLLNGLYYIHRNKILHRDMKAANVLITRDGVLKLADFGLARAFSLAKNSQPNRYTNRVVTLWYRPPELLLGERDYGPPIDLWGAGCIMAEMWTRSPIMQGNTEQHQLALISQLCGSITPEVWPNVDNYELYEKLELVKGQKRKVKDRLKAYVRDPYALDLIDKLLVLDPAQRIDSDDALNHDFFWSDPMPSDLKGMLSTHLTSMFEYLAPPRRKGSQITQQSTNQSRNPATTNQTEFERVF
Sequence (O60563 whole entry partner): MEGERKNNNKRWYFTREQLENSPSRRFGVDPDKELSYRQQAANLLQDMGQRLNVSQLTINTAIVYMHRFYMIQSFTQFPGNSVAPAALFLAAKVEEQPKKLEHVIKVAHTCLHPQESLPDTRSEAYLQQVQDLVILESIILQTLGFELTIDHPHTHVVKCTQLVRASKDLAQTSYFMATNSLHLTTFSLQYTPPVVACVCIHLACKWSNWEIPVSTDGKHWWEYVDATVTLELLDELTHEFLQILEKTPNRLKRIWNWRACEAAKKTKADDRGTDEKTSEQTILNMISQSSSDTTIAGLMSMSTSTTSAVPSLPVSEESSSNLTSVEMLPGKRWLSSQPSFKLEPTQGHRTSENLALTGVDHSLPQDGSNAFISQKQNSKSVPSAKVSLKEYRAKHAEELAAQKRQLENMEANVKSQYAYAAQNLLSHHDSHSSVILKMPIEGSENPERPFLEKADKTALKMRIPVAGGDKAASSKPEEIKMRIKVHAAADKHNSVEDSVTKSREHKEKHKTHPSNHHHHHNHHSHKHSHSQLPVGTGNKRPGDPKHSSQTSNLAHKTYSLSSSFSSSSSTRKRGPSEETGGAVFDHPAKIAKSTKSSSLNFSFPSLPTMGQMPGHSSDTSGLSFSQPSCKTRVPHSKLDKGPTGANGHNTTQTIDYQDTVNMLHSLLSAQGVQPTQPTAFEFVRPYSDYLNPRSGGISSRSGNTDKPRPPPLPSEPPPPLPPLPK
test-description: Inhibition assay, microfluidic LabChip (Nanosyn)
Type: biochemical
study-conditions: Table 3a
Entries and their measured IC50 follow.

These recorded examples may help you get a feel for the data.
Record CN(C)CCOc1ccc(Nc2ncc3cc(C(=O)N(C)C)n(C45CC(C4)C5)c3n2)cc1 [Compound A60] : what is its IC50 with CDK9-CYCLINT1 (Homo sapiens)?
< 3.2 nM

Record CN(C)CCOc1ccc(Nc2ncc3cc(C(=O)N(C)C)n(C45CC(C4)C5)c3n2)cc1F [Compound A93] : what is its IC50 with CDK9-CYCLINT1 (Homo sapiens)?
< 3.2 nM

Record Cc1cc(Nc2ncc3cc(C(=O)N(C)C)n(C45CC(C4)C5)c3n2)ccc1OCCN(C)C [Compound A92] : what is its IC50 with CDK9-CYCLINT1 (Homo sapiens)?
< 3.2 nM

Record CN(C)C(=O)c1cc2cnc(Nc3ccc(S(C)(=O)=O)cc3)nc2n1C12CC(C1)C2 [Compound A79] : what is its IC50 with CDK9-CYCLINT1 (Homo sapiens)?
< 3.2 nM

***
Record CN(C)C(=O)c1cc2cnc(Nc3ccc(N4CCN(CCO)CC4)c(F)c3)nc2n1C12CC(C1)C2 [Compound A74] : what is its IC50 with CDK9-CYCLINT1 (Homo sapiens)?
< 3.2 nM

###

tested-on: CDK4-CYCLIND1 (Homo sapiens)
Construct: purchased Invitrogen
test-description: Inhibition assay, microfluidic LabChip (Nanosyn)
Format: biochemical
study-conditions: Table 3b; read-out: CDK4 CyclinD1 IC50
pIC50: −log10 of the molar value.
measured-quantity: pIC50

These recorded examples may help you get a feel for the data.
What pIC50 value was documented for this molecule, CC(C)N1CCN(c2ccc(Nc3ncc4cc(C(=O)N(C)C)n(C56CC(C5)C6)c4n3)cc2)CC1 (single isomer, unassigned) [Compound A89] ?
> 8.49

What pIC50 value was documented for this molecule, CN1CCN(c2ccc(Nc3ncc4cc(C(=O)N(C)C)n(C56CC(C5)C6)c4n3)cc2)CC1 [Compound A88] ?
> 8.49

***
What pIC50 value was documented for this molecule, CN(C)C(=O)c1cc2cnc(Nc3ccc(N4CCN(CCO)CC4)c(F)c3)nc2n1C12CC(C1)C2 [Compound A74] ?
> 8.49

###

tested-on: CDK7 CyclinH (Homo sapiens)
test-description: Inhibition assay, microfluidic LabChip (Nanosyn)
Type: biochemical
study-conditions: Table 3b
pIC50: −log10 of the molar value.
Entries and their measured pIC50 follow.

These recorded examples may help you get a feel for the data.
What pIC50 value was documented for this molecule, CN(C)C(=O)c1cc2cnc(Nc3ccc(C4=CCNCC4)cn3)nc2n1C12CC(C1)C2 [Compound A87] ?
< 4.00

What pIC50 value was documented for this molecule, CN1CC2(C1)CN(c1ccc(Nc3ncc4cc(C(=O)N(C)C)n(C56CC(C5)C6)c4n3)cc1)C2 [Compound A69] ?
< 5.00

***
What pIC50 value was documented for this molecule, CN(C)C(=O)c1cc2cnc(Nc3ccc(S(C)(=O)=O)cc3)nc2n1C12CC(C1)C2 [Compound A79] ?
< 5.00
